Values from ChEMBL document CHEMBL1131345

# ASSAYED SYSTEM: D(2) dopamine receptor (Rattus norvegicus, UniProt P61169)
# Sequence (P61169 whole entry): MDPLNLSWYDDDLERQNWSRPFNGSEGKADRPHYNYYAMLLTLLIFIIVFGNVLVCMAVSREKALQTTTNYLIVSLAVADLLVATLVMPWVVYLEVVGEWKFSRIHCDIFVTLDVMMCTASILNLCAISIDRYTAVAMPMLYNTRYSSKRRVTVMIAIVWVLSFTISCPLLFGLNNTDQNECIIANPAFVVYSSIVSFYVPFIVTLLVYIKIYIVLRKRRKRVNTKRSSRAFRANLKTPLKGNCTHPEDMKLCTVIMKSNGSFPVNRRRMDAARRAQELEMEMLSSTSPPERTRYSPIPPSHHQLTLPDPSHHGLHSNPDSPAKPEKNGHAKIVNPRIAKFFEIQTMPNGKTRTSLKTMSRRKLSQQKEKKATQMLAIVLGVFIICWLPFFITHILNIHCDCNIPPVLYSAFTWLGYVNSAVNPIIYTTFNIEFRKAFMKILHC
# ASSAY METHOD TEXT: Inhibition of [3H]- spiperone binding to rat brain Dopamine receptor D2
PROPERTY MEASURED: pIC50
Conceptually, pIC50 converts a concentration in mol/L into minus its log10.

Exercise: Which pIC50 value is on record for CCN1CCN(C)C[C@H](NC(=O)c2cc(Br)c(NC)nc2OC)C1 ?
Key: 7.09

Exercise: Which pIC50 value is on record for CCNc1nc(OC)c(C(=O)NC2CN(C)CCN(CC)C2)cc1Cl (stereo not drawn) ?
Key: 7.12

Exercise: Which pIC50 value is on record for CCN1CCN(C)CC(NC(=O)c2cc(Br)c(N(C)C)nc2OC)C1 (stereo not drawn) ?
Key: 7.12
